- experimental_system: T1, 4H384-AA
- T1 chain: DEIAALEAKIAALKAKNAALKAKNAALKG
- experiment_summary: two-hybrid library CCmax;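 further: natural log of median RNA to DNA barcode read ratio; higher means stronger binding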
- condition_context: mean of both orientations
Mark TRUE only for interaction score values smaller than -0.3; exact matches and larger values are FALSE.

Illustrative cases are given below, each with its answer.
INSERT INTO measurements (binder, assigned_category) VALUES
  ('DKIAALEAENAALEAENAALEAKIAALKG [4H2198-AA]', 'FALSE'),
  ('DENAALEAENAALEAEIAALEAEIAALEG [4H1153-AA]', 'TRUE'),
  ('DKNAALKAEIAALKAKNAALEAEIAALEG [4H3697-AA]', 'TRUE'),
  ('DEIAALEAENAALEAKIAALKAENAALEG [4H171-AA]', 'TRUE'),
  ('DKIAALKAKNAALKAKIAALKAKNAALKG [4H3056-AA]', 'TRUE'),
  ('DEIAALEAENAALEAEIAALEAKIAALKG [4H134-AA]', 'FALSE'),
  ('DKNAALKAEIAALEAEIAALEAENAALKG [4H3588-AA]', 'FALSE'),
  ('DKNAALKAENAALEAEIAALEAKIAALKG [4H3718-AA]', 'FALSE');

Q: Is the reported interaction score for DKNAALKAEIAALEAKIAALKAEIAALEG [4H3625-AA] strictly below -0.3?
Ans: TRUE

Q: Is the reported interaction score for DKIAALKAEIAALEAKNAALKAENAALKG [4H2620-AA] strictly below -0.3?
Ans: FALSE

Q: Is the reported interaction score for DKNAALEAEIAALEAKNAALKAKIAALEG [4H3133-AA] strictly below -0.3?
Ans: TRUE

Q: Is the reported interaction score for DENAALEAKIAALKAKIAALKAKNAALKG [4H1392-AA] strictly below -0.3?
Ans: TRUE

Q: Is the reported interaction score for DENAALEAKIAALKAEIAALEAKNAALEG [4H1351-AA] strictly below -0.3?
Ans: FALSE

Q: Is the reported interaction score for DKNAALEAKIAALKAENAALEAKIAALEG [4H3413-AA] strictly below -0.3?
Ans: TRUE

Attribution: paper PMC10397247
